These measurements were taken from patent US20180171001A1.

molecular target: Env of HIV-1 strain 250-4 (HIV-1); assay: cell-based or functional assay
QUANTITY MEASURED: neutralization IC50

[
  {
    "BINDER": "γ52κ11 (antibody, V domains shown) VH: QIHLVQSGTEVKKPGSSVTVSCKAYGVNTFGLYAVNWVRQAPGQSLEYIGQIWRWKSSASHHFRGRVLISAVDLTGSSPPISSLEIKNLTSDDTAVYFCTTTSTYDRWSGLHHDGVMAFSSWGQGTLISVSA VL: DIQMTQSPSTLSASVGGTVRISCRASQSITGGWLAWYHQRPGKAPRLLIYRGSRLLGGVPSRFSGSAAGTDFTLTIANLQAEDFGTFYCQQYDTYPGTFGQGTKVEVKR",
    "RESULT": "> 15 µg/mL"
  },
  {
    "BINDER": "γ46κ61 (antibody, V domains shown) VH: QIHLVQSGTEVKKPGSSVTVSCKAYGVNTFGLYAVNWVRQAPGQGLEYIGQIWRWKSSASHHFRGRVLISAVDLTGSSPPISSLEIKNVTSDDTAVYFCTTTSTYDKWSGLHHDGVVAFSSWGQGTLISVSA VL: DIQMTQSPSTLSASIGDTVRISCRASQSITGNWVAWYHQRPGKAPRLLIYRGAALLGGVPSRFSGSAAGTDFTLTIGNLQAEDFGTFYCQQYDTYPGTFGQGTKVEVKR",
    "RESULT": "> 15 µg/mL"
  }
]
